Item-by-item account of inhibition
assay: inhibitors of TNFa-induced NFkB p65 translocation, primary screen, imaging, HUVEC, MLSMR starter and 10KST1 sets (AID 438); settings: HUVEC TNFa-induced p65 nuclear translocation; at 2 µM, hits give high values, 0% TNFa-plus-vehicle, 100% no-TNFa wells;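 further: compound added about 3h40 before a 20 min TNFalpha stimulation; signal is the nuclear over cytoplasmic p65 intensity ratio per well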
Express the result in % but write the number alone.

Asked: Could you tell me which inhibition is on file for CCOC(=O)c1ccc(COC(=O)CCc2nc3ccccc3[nH]c2=O)o1 ?
Given back: 10.6

Asked: Could you tell me which inhibition is on file for N#C/C(C(=O)N1CCOCC1)=C1/SC=C(c2ccccc2)N1c1ccccc1 ?
Given back: -5.5

Asked: Could you tell me which inhibition is on file for COc1ccccc1N1CCN(C(=O)c2ccc3nc(-c4ccco4)c(-c4ccco4)nc3c2)CC1 ?
Given back: -15.9

Asked: Could you tell me which inhibition is on file for CC(C(=O)N1CCOCC1)N1c2cccc3cccc(c23)S1(=O)=O (stereo not given) ?
Given back: -13.3

Asked: Could you tell me which inhibition is on file for CCNc1nc(OC)nc(Oc2ccc(=O)n(-c3ccccc3)n2)n1 ?
Given back: 6.8

----------
Item-by-item account of inhibition
experiment: loss of swimming-algae plug formation – whole organism, Chlamydomonas reinhardtii, WT vs cilia-less mutant, absorbance, 96-well, primary screen (AID 463189); conditions: Chlamydomonas reinhardtii gravitaxis, OD600 absorbance, 2 days; at 10 µM; hits give high values;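 further: 0% = wild type cc124 cells in DMSO and 100% = ciliumless bld1 mutant cells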
Express the result in % but write the number alone.

molecule	readout-units	inhibition
O=c1oc(Cl)c(Cl)c2ccccc12	%	3.88
CCn1cc(C(=O)O)c(=O)c2ccc(Cc3ccccc3)nc21	%	6.19
NC(=O)C1=CN(C2OC(COP(=O)(O)OP(=O)(O)OC[C@H]3O[C@@H](n4cnc5c(N)ncnc54)C(OP(=O)(O)O)[C@H]3O)C(O)C2O)C=CC1 (stereo partly specified)	%	-0.493

Asked: Could you tell me which inhibition is on file for O=C(O)/C(=C/c1c(C(=O)O)[nH]c2cc(Cl)cc(Cl)c12)c1ccccc1 ?
Given back: -3.38

Asked: Could you tell me which inhibition is on file for COc1nc(C)nc(Cl)c1NC1=NCCN1 ?
Given back: 1.2

Asked: Could you tell me which inhibition is on file for N=C(N)SCCc1cccc(CCSC(=N)N)c1 ?
Given back: 2.04

----------
Item-by-item account of NADPH fluorescence slope
molecular target: Voltage-gated potassium channel subunit beta-2 (Rattus norvegicus); assay: enhancers of rat Kvbeta2 NADPH turnover – biochemical, NADPH fluorescence, primary screen (AID 623); settings: Recombinant KvBeta, NADPH fluorescence decrease slope, 10 min; at 10 µM; hits give low values;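 further: fluorescence intensity change per second fitted from 20 to 320 s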
The response must contain the number and no unit.

Would you please look over these solved cases?
> print(dat)
                                    compound  measured.result
 1  CCC1Oc2ccccc2N(CC(=O)Nc2ccc(OC)cc2OC)C1=O (stereo unspecified)        -0.000132
 2  CCC(NC(=O)Nc1nnc(C(F)(F)F)s1)(C(F)(F)F)C(F)(F)F         -4.2e-05
 3  O=C(CN(Cc1ccco1)C(=O)CNS(=O)(=O)c1ccc(Cl)cc1)NCc1ccc(F)cc1         -6.4e-06
 4                      c1nnc(NC2=NCCCCC2)s1         -1.1e-05
 5  CN1CCN(C(=O)c2ccccc2N(Cc2ccccc2)S(C)(=O)=O)CC1         -6.8e-05
 6  CCCOc1ccc(-c2nnn(CC(=O)Nc3cccc(C(=O)OC)c3)n2)cc1         0.000154
 7  Cc1cc2c(s1)c1cnn(CC(=O)NCCc3ccccc3)c(=O)c1n2C         -7.6e-06
 8    O=C(CCN1CCN(c2ccc(F)cc2)CC1)Nc1ccccc1F         0.000136
 9  CCc1cc(-c2[nH]ncc2-c2ccc3c(c2)OCO3)c(O)cc1O          3.5e-05
10  O=C(c1ccco1)N1CCN(C(=O)c2ccc(Cn3cc(Br)cn3)o2)CC1         -4.2e-05

Turning now to a further record.
Asked: Could you tell me which NADPH fluorescence slope is on file for COc1ccc(NC(=O)CCNC(=O)Cn2ccc3ccccc3c2=O)c(OC)c1 ?
Given back: -5.9e-05

FYI, the data here is from PubChem BioAssay.
